Test summary: qHTS of pediatric cancer cell lines to identify multiple opportunities for drug repurposing: Primary screen for BT-37 cells (AID 1347094)
Condition summary: BT-37 viability, CellTiter-Glo luminescence, 48 h; series mostly up to 57.3 µM
Records with an inconclusive call do not appear. Activity calls are given as the source filed them. Calls follow the shape of the dose curve; as a rule, active = well fitted cell-killing curve with a large enough effect; inconclusive = small, poorly fitted or top-dose-only effect; inactive = flat fitted curve, though single readings scatter.
Classes used: y for active, n for inactive

CC=C1C2C=C(C)CC1(N)c1ccc(=O)[nH]c1C2 (stereo not drawn) :: n
Cn1c(=O)c(Oc2ccc(F)cc2F)cc2cnc(NC3CCOCC3)nc21 :: n
Nc1ncnc2c1ncn2[C@@H]1O[C@H](CO)[C@@H](O)[C@@H]1O :: y
CNc1nc(Nc2ccc(C(=O)N3CCOCC3)cc2OC)ncc1Cl :: n
N#CC(c1ccnc(NCCc2cccnc2)n1)c1nc2ccccc2s1 (stereo not drawn) :: y
CN1c2ccccc2C(=O)N2CCc3c([nH]c4ccccc34)C21 (stereo not drawn) :: n
Cc1ccccc1-n1c(Cn2nc(-c3cccc(O)c3)c3c(N)ncnc32)nc2cccc(C)c2c1=O :: y
CN1CCC[C@H]1CCO[C@](C)(c1ccccc1)c1ccc(Cl)cc1 :: n
Cc1cccc(-c2[nH]c(C(C)(C)C)nc2-c2ccc3c(c2)OCO3)n1 :: y
O=C(c1ccc(F)c(F)c1Nc1ccc(I)cc1F)N1CC(O)([C@H]2CCCCN2)C1 :: y
CC(C)(OCc1nn(Cc2ccccc2)c2ccccc12)C(=O)O :: n
CC(C)(CO)[C@@H](O)C(=O)NCCC(=O)O :: n
CC1CCN(c2cc(N3CCN(C)CC3)ccc2NC(=O)c2cc(C#N)c[nH]2)CC1 :: n
CCN1CCC(n2cc(CNc3cc(Cl)c4ncc(C#N)c(Nc5ccc(F)c(Cl)c5)c4c3)nn2)CC1 :: y
Nc1ccc(-c2ccc3ncc4ccc(=O)n(-c5cccc(C(F)(F)F)c5)c4c3c2)cn1 :: y
NC(=O)c1ccc(N(C(N)=O)c2c(F)cccc2F)nc1-c1ccc(F)cc1F :: n
CO[C@H]1/C=C\O[C@@]2(C)Oc3c(C)c(O)c4c(O)c(c(C=NN5CCN(C6CCCC6)CC5)c(O)c4c3C2=O)NC(=O)C(C)=CC=C[C@H](C)[C@H](O)[C@@H](C)[C@@H](O)[C@@H](C)[C@H](OC(C)=O)[C@H]1C :: y
CN(C)CCOc1ccc(-c2nc(-c3ccc4c(c3)CCC4=NO)c(-c3ccncc3)[nH]2)cc1 :: y

* * *

Test summary: Quantitative High-Throughput drug screen in 47 multiple myeloma cell lines against the NCATS MIPE library collection: OCIMY5_PLB cell viability assay (AID 1918988); also: nearly all actives have a fitted effect of over 65% in size
Condition summary: OCI-MY5 myeloma viability, ATP luminescence, 48 h; series mostly up to 45.8 µM
Records with an inconclusive call do not appear. Active and inactive are the calls of the source. Calls follow the shape of the dose curve; as a rule, active = well fitted cell-killing curve with a large enough effect; inconclusive = small, poorly fitted or top-dose-only effect, or effect the other way; inactive = no such curve, though single readings can be large or run the other way.
Classes used: 1 (yes) = active, 0 (no) = inactive

O=C(Nc1cccc(Cl)c1)Nc1ncc(CCNc2ncnc3ccsc23)s1 :: 1 (yes)
Cc1cnc(CNC(=O)c2c(=O)c3ccc(N4CCCN(C)CC4)nc3n3c2sc2ccccc23)cn1 :: 1 (yes)
CNC(=O)c1cc(COc2nnc(Nc3ccc(Cl)cc3)c3ccoc23)ccn1 :: 1 (yes)
C[C@@H](NC(=O)c1ncnc(N)c1Cl)c1ncc(C(=O)Nc2cc(C(F)(F)F)c(Cl)cn2)s1 :: 1 (yes)
CN1CCN(c2ncc(-c3cc(Cl)cc(Cl)c3Cl)c(N)n2)CC1 :: 0 (no)
CO[C@H]1C=CO[C@@]2(C)Oc3c(C)c(O)c4c(O)c(c(C=NN5CCN(C)CC5)c(O)c4c3C2=O)NC(=O)C(C)=CC=C[C@H](C)[C@H](O)[C@@H](C)[C@@H](O)[C@@H](C)[C@H](OC(C)=O)[C@H]1C :: 1 (yes)
COc1ccc(-c2nc3ccc(C4=NNC(=O)CC4C)cc3[nH]2)cc1 (stereo not drawn) :: 0 (no)
Nc1ccn([C@@H]2O[C@H](CO)[C@@H](O)[C@H]2O)c(=O)n1 :: 0 (no)

* * *

Test summary: Quantitative High-Throughput drug screen in 47 multiple myeloma cell lines against the NCATS MIPE library collection: KHM11_PLB cell viability assay (AID 1918962); also: nearly all actives have a fitted effect of over 35% in size; also: potency is read from the fitted curve at half-maximal effect
Condition summary: KHM11 myeloma cell viability, CellTiter-Glo ATP luminescence, 48 h; series mostly up to 45.8 µM
Results filed as inconclusive are left out. Calls of active or inactive are those of the source. The call rests on the fitted dose curve; in most records, active means well fitted cell-killing curve with a large enough effect; inconclusive means small, poorly fitted or top-dose-only effect, or effect the other way; inactive means no such curve, though single readings can be large or run the other way.
Metric: Potency

O=C(c1ccc(C=Cc2n[nH]c3ccccc23)cc1)N1CCNCC1 :: 833 nM (active)
C[C@@H]1[C@H](C)CC[C@]2(C(=O)O)CC[C@]3(C)C(=CC[C@@H]4[C@@]5(C)CC[C@H](O)C(C)(C)[C@H]5CC[C@]43C)[C@@H]12 :: inactive
CC(NCCc1ccc(O)cc1)C(O)c1ccc(O)cc1 (stereo not given) :: inactive
COc1cc(Cl)cn2c(-c3cccc(NC4CNC4)n3)cnc12 :: 18700 nM (active)
COC(=O)N1CCN(Cc2cccc(NC(=O)Nc3ccc(C)nc3)c2F)CC1 :: inactive
NCC1CCC(C(=O)O)CC1 (stereo not given) :: 4180 nM (active)
CNC(=O)c1ccc2c(C(=Nc3cccc(CN(C)C)c3)c3ccccc3)c(O)[nH]c2c1 :: 1320 nM (active)
N#Cc1c(N(CC(=O)O)CC(=O)O)sc(C(=O)O)c1CC(=O)O :: inactive
O=C1CCCC(=O)C1C(=O)c1ccc(C(F)(F)F)cc1[N+](=O)[O-] :: inactive
COc1c(C)cnc(Cn2cnc3c(Cl)nc(N)nc32)c1C :: 105 nM (active)

* * *

Test summary: Cell Proliferation Assay against the HBL1 Cell Line (AID 651646);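 also: cells exposed to compound for 48 h before reading; 100% = DMSO and 0% = 9.2 µM bortezomib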
Condition summary: HBL1 DLBCL cells; at 46.1 µM (top of the series)
Metric: viability, percent of control (%)

O=C(Nc1ccc(OC(F)(F)F)cc1)c1sccc1NCc1ccnc2ccccc12 :: 26
CC(=O)NCCC(=O)N[C@@H](CCC(N)=O)C(=O)N[C@@H](CO)C(=O)N[C@@H](CCC(N)=O)C(=O)N[C@@H](CCC(N)=O)C(=O)N[C@H](C(=O)N[C@@H](Cc1ccccc1)C(=O)N[C@]1(C)CCCCCCC=CCCC[C@@](C)(C(=O)N[C@@H](CCC(N)=O)C(=O)N[C@@H](CC(N)=O)C(N)=O)NC(=O)[C@H](CC(C)C)NC(=O)[C@H](CC(C)C)NC(=O)[C@@H](CCCNC(=N)N)NC(=O)[C@H](Cc2c[nH]c3ccccc23)NC(=O)[C@H](CC(C)C)NC(=O)[C@H](CC(N)=O)NC1=O)[C@H](C)O :: 3.58
COc1ccc(CCN(C)CCCOc2ccc(S(=O)(=O)c3[nH]c4ccccc4c3C(C)C)cc2)cc1OC :: 7.05
O=C(Nc1cccc(Cl)c1)Nc1ncc(CCNc2ncnc3ccsc23)s1 :: 2.32
Cc1ccc(C(=O)N(CCCN)[C@@H](c2nc3cc(Cl)ccc3c(=O)n2Cc2ccccc2)C(C)C)cc1 :: 1.66
CC(C)Oc1cc(Nc2nc(N[C@@H](C)c3ccc(F)cn3)ncc2Cl)[nH]n1 :: 13.4
Cc1nn(Cc2ccccc2Cl)c(C)c1CN(C)CC(O)COc1ccc(Cl)cc1 (stereo unspecified) :: 2.62
Cc1cc2c(cc1C1(c3ccc(C(=O)O)cn3)CC1)C(C)(C)CCC2(C)C :: 48.2
CCC=CC[C@H]1C(=O)CC[C@@H]1CC(=O)OC :: 109
CCCCc1ccc(NS(=O)(=O)c2ccc(C)c(C(=O)N3CCN(c4cccc(C)c4C)CC3)c2)cc1 :: 6.19
CNC(=O)c1cc(Oc2ccc(NC(=O)Nc3ccc(Cl)c(C(F)(F)F)c3)c(F)c2)ccn1 :: 4.87
CCNC(=O)c1noc(-c2cc(C(C)C)c(O)cc2O)c1-c1ccc(CN2CCOCC2)cc1 :: 47.2
CCN(CC)CCCCNc1nc2cc(Cl)c(Cl)cc2nc1-c1ccc(-c2cccs2)s1 :: 1.92
COc1c(C)cnc(Cn2cnc3c(Cl)nc(N)nc32)c1C :: 59.9
CCCCOCCOc1nc(-c2ccc(C(=O)O)c(F)c2)sc1C :: 84.4
CC(=O)Nc1cccc(-n2c(=O)n(C3CC3)c(=O)c3c(Nc4ccc(I)cc4F)n(C)c(=O)c(C)c32)c1 :: 6.64

* * *

# Lookup of reported z-score keyed by entry
Test summary: qHTS for identification of novel therapeutic agents for treatment of microphthalmiaassociated transcription factor (MiT) renal cell carcinoma (RCC) (AID 1963991);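 also: curves scaled with 100% = DMSO viability and 0% = empty wells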
Condition summary: TFE3-RCC viability, CellTiter-Glo, 48 h; measured here: UOK145 Z-AUC; stronger effect = lower value
Protocol: PI: Marston Linehan Ph.D. Urologic Oncology Branch, Center for Cancer Research (CCR) National Cancer Institute (NCI), National Institute of Health (NIH), Bethesda, Maryland […] 6; Detection; Luminescence; ViewLux plate reader (PerkinElmer). […] 1. Quantitative high-throughput screening (qHTS) of 1912 pharmacologically defined small molecule compounds was conducted on three TFE3-fusion cell lines bearing three different fusion partners (UOK109, UOK124, UOK145). […]
Records with an inconclusive call do not appear.
Metric: z-score

NCC1CCC(C(=O)O)CC1 (centres undefined) :: 0.669
C[C@H]1COC2=C1C(=O)C(=O)c1c2ccc2c1CCCC2(C)C :: -0.271
C[C@@H](O)[C@H]1C(=O)N2C(C(=O)OCOC(=O)C(C)(C)C)=C(SC3CN(C4=NCCS4)C3)[C@H](C)[C@H]12 :: 0.788
CC(NCCc1ccc(O)cc1)C(O)c1ccc(O)cc1 (centres undefined) :: 2.38
CCN1C[C@H](C)n2c(c(O)c3c(=O)n(Cc4ccc(F)c(Cl)c4)nc(C(=O)NC)c32)C1=O :: 2.87
NS(=O)(=O)c1cc(Cl)c(Cl)c(S(N)(=O)=O)c1 :: 1.23
CC[C@]1(O)C[C@H]2CN(CCC3=c4ccccc4=N[C]3[C@@](C(=O)OC)(c3cc4c(cc3OC)N(C)[C@H]3[C@@](O)(C(N)=O)[C@H](O)[C@]5(CC)C=CCN6CC[C@]43[C@@H]65)C2)C1 :: -0.904
CCC[C@H](Nc1nc(-c2ccc(NC(=O)NCC)c(OC)c2)ncc1C)c1cccnc1 :: -2.31
FC(F)(F)c1ccc(C=Cc2nc(COc3ccc(CCCCn4ccnn4)cc3)co2)cc1 :: -1.58
